In this section, each of the binders is paired with its reported pKd.
- System under test: rec-cMet (Recombinant Human HGF R/c-MET/Fc Chimera) (Homo sapiens, UniProt P08581;P08581 SEQ:1-283,SEQ:1-625)
- Sequence (P08581 25-307, change not shown, chain 1 of 2): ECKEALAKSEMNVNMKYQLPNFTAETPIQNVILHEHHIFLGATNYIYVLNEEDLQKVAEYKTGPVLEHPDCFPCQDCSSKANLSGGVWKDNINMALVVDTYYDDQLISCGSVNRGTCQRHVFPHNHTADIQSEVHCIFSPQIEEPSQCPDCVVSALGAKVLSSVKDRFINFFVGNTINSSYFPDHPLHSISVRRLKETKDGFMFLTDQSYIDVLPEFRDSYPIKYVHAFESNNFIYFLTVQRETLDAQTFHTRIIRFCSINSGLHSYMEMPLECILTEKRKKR
- Sequence (P08581 308-932, change not shown, chain 2 of 2): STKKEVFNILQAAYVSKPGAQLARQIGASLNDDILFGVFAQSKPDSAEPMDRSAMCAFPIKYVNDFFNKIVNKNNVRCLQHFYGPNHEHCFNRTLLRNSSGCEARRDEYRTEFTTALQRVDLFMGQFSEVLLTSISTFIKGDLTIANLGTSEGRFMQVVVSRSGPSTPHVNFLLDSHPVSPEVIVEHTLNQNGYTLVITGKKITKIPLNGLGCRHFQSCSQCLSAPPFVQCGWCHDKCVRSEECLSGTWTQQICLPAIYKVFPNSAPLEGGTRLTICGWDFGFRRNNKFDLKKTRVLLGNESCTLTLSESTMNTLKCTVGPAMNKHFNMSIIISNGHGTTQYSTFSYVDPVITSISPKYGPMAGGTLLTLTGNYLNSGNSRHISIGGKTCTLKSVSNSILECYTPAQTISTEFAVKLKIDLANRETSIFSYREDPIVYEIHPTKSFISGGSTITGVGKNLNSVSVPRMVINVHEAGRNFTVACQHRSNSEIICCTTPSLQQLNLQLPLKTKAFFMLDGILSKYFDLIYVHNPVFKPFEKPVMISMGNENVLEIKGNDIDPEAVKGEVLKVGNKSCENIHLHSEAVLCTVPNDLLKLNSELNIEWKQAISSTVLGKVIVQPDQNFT
- Method notes: SPR; rec-cMet 175 nM
- Condition: tags: C-terminal HIEGRMD linker, human IgG Fc (100-330), 6xHis; R&D Systems; chain copies: 2 (inferred, Fc chimera)
pKd: −log10 of the molar value.

[
  {
    "Binder": "GGGCUGAGAGUUUGACCAGCUAUUAAAUGGGUCGUGACUCAG (ssRNA) [g1-miniB]",
    "pKd": 7.58
  },
  {
    "Binder": "GGGACUGAGAGUUUGACCAGCUAUUAAAUGGGUCGUGACUCAGU (ssRNA) [g1-miniA]",
    "pKd": 8.10
  }
]

src = patent US20130123350
